Target chain: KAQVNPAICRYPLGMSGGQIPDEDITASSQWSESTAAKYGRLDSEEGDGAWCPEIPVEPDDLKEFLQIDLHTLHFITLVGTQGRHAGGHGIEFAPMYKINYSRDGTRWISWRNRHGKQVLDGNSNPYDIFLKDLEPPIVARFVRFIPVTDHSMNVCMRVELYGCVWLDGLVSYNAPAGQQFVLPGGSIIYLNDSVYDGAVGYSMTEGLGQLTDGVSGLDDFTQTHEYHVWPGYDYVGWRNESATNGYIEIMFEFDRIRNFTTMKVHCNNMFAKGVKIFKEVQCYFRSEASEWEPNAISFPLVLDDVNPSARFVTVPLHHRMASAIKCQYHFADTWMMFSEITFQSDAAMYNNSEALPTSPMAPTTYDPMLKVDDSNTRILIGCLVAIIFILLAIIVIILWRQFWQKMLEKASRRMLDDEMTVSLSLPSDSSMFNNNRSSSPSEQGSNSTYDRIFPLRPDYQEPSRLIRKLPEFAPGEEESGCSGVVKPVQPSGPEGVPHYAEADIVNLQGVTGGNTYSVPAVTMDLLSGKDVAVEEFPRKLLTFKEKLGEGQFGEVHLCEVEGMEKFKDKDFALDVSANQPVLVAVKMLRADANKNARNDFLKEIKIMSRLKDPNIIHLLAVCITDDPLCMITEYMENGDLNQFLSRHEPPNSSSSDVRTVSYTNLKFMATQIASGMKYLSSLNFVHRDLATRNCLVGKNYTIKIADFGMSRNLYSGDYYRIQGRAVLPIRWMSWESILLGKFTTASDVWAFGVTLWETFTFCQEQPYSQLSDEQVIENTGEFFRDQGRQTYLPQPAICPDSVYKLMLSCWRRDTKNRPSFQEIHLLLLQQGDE
MEASUREMENT_KIND: pIC50
The value called pIC50 is obtained by taking minus log10 of the concentration in mol/L.

What value of measured pIC50 is listed for COc1cc(Nc2c(C#N)cnc3cc(OCCCN4CCN(C)CC4)c(OC)cc23)c(Cl)cc1Cl ? 5.31

* * *

# TEST_SYSTEM: JNK2 (Mus musculus, UniProt Q9WTU6)
# Construct: from tissue; host or cells: mouse brain
# Sequence (Q9WTU6 whole entry): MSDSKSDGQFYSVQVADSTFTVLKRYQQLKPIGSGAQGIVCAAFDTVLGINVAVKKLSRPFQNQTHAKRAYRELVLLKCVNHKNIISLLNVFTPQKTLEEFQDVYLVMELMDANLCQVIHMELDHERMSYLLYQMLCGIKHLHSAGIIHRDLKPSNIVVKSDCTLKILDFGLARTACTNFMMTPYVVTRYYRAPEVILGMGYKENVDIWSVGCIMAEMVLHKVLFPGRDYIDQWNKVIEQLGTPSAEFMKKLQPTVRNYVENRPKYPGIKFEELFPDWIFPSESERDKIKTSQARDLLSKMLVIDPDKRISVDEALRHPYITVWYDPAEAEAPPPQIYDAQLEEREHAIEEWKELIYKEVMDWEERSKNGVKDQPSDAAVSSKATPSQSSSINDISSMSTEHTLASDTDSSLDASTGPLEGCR
# ASSAY_COMMENT: Kinobeads elution with test compound, mouse brain lysate, MS
# Type: binding
# MEASUREMENT_SETUP: kinase released from kinobeads by specific elution
MEASUREMENT_KIND: mass spectrometry score, JNK2
No unit in the answer, only the number.

These recorded examples may help you get a feel for the data.
NCc1ccc(Nc2ncc(F)c(Nc3ccccc3)n2)cc1 ... 662
Cn1c(=O)c(-c2c(Cl)cccc2Cl)cc2cnc(Nc3ccc(CN)cc3)cc21 ... 702
Oc1ccc(-c2nc(-c3ccc(F)cc3)c(-c3ccncc3)[nH]2)cc1 ... 170
NCCCn1cc(C2=C(c3c[nH]c4ccccc34)C(=O)NC2=O)c2ccccc21 [CZC1038, Bisindolylmaleimide III, reference compound] ... 287
CCCCCCCCCCCCOS(=O)(=O)[O-].[Na+] ... 369

Below: the item to evaluate.
What value of measured mass spectrometry score, JNK2 is listed for CC(C)[C@H](CO)Nc1nc(Nc2ccc(C(=O)O)c(Cl)c2)c2ncn(C(C)C)c2n1 [Purvalanol B, reference compound] ? 277

* * *

Measured number of identified peptides, JNK3 accompanies every entry in the list below.
# TEST_SYSTEM: JNK3 (Mus musculus, UniProt Q61831)
# Construct: from tissue; host or cells: mouse brain
# Sequence (Q61831 whole entry): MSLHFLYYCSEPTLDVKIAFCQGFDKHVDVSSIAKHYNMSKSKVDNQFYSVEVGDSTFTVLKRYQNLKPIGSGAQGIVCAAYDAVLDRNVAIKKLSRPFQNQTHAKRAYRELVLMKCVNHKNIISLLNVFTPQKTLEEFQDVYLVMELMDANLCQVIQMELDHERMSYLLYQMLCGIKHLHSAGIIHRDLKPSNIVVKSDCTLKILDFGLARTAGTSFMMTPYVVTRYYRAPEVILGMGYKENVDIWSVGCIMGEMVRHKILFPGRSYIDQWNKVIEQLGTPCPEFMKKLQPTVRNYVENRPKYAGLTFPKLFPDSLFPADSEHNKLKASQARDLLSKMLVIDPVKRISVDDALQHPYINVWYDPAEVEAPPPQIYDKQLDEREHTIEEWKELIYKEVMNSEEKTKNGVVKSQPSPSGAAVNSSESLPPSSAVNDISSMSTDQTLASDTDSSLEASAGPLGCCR
# ASSAY_COMMENT: Kinobeads elution with test compound, mouse brain lysate, MS
# Assay type: binding
# MEASUREMENT_SETUP: kinase released from kinobeads by specific elution
No unit in the answer, only the number.

What value of measured number of identified peptides, JNK3 is listed for CC(C)[C@H](CO)Nc1nc(Nc2ccc(C(=O)O)c(Cl)c2)c2ncn(C(C)C)c2n1 [Purvalanol B, reference compound] ? 7

Next molecule: CCCCCCCCCCCCOS(=O)(=O)[O-].[Na+] 27

Next molecule: Oc1ccc(-c2nc(-c3ccc(F)cc3)c(-c3ccncc3)[nH]2)cc1 30

Next molecule: CNC1CC2OC(C)(C1OC)n1c3ccccc3c3c4c(c5c6ccccc6n2c5c31)C(=O)NC4 (stereo not drawn) 10

Next molecule: Cn1c(=O)c(-c2c(Cl)cccc2Cl)cc2cnc(Nc3ccc(CN)cc3)cc21 49

Next molecule: NCc1ccc(Nc2ncc(F)c(Nc3ccccc3)n2)cc1 23

* * *

# TEST_SYSTEM: Erk2 (Mus musculus, UniProt P63085)
# Construct: […]; from tissue; host or cells: mouse brain
# Sequence (P63085 whole entry): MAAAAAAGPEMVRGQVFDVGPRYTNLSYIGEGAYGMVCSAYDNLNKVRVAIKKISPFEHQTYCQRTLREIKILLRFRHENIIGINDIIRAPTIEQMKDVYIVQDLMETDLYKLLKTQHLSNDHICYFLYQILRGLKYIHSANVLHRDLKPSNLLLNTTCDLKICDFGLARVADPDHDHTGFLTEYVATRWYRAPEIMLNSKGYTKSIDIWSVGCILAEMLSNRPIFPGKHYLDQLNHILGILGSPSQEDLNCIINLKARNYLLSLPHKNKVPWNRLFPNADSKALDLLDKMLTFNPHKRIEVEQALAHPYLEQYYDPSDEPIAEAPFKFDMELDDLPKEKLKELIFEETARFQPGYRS
# ASSAY_COMMENT: Kinobeads elution with test compound, mouse brain lysate, MS
# Format: binding
# MEASUREMENT_SETUP: kinase released from kinobeads by specific elution
mass spectrometry score, Erk2 below 800 gives criterion not met; mass spectrometry score, Erk2 at or above it gives criterion met.

NCCCn1cc(C2=C(c3c[nH]c4ccccc34)C(=O)NC2=O)c2ccccc21 [CZC1038, Bisindolylmaleimide III, reference compound] ... criterion not met
Cn1c(=O)c(-c2c(Cl)cccc2Cl)cc2cnc(Nc3ccc(CN)cc3)cc21 [CZC7324] ... criterion met
CCCCCCCCCCCCOS(=O)(=O)[O-].[Na+] [SDS] ... criterion met
CC(C)[C@H](CO)Nc1nc(Nc2ccc(C(=O)O)c(Cl)c2)c2ncn(C(C)C)c2n1 [Purvalanol B, reference compound] ... criterion met

Now turn to the next compound.
Dear colleague, could you confirm whether Oc1ccc(-c2nc(-c3ccc(F)cc3)c(-c3ccncc3)[nH]2)cc1 [CZC7098] has mass spectrometry score, Erk2 at or above 800? criterion not met

* * *

# TEST_SYSTEM: GSK3Aps (Mus musculus, UniProt Q2NL51)
# Construct: from tissue; host or cells: mouse brain
# Sequence (Q2NL51 2-490 limits assumed): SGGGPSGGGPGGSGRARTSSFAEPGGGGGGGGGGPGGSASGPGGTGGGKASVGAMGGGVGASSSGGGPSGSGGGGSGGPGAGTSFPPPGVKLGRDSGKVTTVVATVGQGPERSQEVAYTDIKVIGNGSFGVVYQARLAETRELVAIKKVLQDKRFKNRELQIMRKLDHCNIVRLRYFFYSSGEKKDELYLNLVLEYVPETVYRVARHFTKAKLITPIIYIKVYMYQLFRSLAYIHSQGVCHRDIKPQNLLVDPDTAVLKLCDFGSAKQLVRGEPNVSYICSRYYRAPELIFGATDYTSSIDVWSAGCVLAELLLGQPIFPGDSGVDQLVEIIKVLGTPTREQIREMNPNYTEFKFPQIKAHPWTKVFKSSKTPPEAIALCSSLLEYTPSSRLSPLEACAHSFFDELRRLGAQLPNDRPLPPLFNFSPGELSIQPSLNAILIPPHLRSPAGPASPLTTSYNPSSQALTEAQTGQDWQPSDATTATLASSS
# ASSAY_COMMENT: Kinobeads elution with test compound, mouse brain lysate, MS
# Assay type: binding
# MEASUREMENT_SETUP: kinase released from kinobeads by specific elution
number of identified peptides, GSK3Aps below 30 gives not fulfilled; number of identified peptides, GSK3Aps at or above it gives fulfilled.

NCc1ccc(Nc2ncc(F)c(Nc3ccccc3)n2)cc1 ... not fulfilled
CC(C)[C@H](CO)Nc1nc(Nc2ccc(C(=O)O)c(Cl)c2)c2ncn(C(C)C)c2n1 [Purvalanol B, reference compound] ... not fulfilled
CNC1CC2OC(C)(C1OC)n1c3ccccc3c3c4c(c5c6ccccc6n2c5c31)C(=O)NC4 (stereo not shown) ... fulfilled
Oc1ccc(-c2nc(-c3ccc(F)cc3)c(-c3ccncc3)[nH]2)cc1 ... not fulfilled
CCCCCCCCCCCCOS(=O)(=O)[O-].[Na+] ... fulfilled

Dear colleague, could you confirm whether Cn1c(=O)c(-c2c(Cl)cccc2Cl)cc2cnc(Nc3ccc(CN)cc3)cc21 has number of identified peptides, GSK3Aps at or above 30? not fulfilled

Next compound: NCCCn1cc(C2=C(c3c[nH]c4ccccc34)C(=O)NC2=O)c2ccccc21 [CZC1038, Bisindolylmaleimide III, reference compound] fulfilled

* * *

Measured number of identified peptides, CSK accompanies every entry in the list below.
# TEST_SYSTEM: CSK (Mus musculus)
# Sequence (P41241 whole entry): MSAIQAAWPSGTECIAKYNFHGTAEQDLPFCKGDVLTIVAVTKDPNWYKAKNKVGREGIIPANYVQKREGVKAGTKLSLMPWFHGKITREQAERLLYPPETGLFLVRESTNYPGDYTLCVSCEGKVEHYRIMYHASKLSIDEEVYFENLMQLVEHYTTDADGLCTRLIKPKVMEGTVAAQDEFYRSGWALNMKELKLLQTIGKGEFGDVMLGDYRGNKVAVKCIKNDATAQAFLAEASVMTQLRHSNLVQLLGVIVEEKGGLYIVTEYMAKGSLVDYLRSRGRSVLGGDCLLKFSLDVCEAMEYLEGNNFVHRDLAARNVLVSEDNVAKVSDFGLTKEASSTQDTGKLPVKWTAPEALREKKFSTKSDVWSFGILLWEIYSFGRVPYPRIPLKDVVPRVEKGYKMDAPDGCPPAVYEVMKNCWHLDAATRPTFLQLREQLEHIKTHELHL
# ASSAY_COMMENT: Kinobeads elution with test compound, mouse brain lysate, MS
# Type: binding
# MEASUREMENT_SETUP: kinase released from kinobeads by specific elution
No unit in the answer, only the number.

What value of measured number of identified peptides, CSK is listed for Cn1c(=O)c(-c2c(Cl)cccc2Cl)cc2cnc(Nc3ccc(CN)cc3)cc21 ? 19

Next compound: CCCCCCCCCCCCOS(=O)(=O)[O-].[Na+] 15

Next compound: CC(C)[C@H](CO)Nc1nc(Nc2ccc(C(=O)O)c(Cl)c2)c2ncn(C(C)C)c2n1 [Purvalanol B, reference compound] 12

Next compound: CNC1CC2OC(C)(C1OC)n1c3ccccc3c3c4c(c5c6ccccc6n2c5c31)C(=O)NC4 (stereo not shown) 8

* * *

# TEST_SYSTEM: JNK1 (Mus musculus, UniProt Q91Y86)
# Construct: from tissue; host or cells: mouse brain
# Sequence (Q91Y86 whole entry): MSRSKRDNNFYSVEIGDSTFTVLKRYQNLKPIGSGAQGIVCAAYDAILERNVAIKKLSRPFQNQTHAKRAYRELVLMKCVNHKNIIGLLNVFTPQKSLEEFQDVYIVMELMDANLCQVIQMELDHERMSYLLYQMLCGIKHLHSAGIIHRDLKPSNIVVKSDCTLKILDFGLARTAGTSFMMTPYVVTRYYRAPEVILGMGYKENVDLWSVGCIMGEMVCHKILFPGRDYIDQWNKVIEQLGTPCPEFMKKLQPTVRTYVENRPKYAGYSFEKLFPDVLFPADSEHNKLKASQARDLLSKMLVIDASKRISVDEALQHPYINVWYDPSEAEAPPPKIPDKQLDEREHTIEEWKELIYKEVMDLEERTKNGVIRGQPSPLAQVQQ
# ASSAY_COMMENT: Kinobeads elution with test compound, mouse brain lysate, MS
# Type: binding
# MEASUREMENT_SETUP: kinase released from kinobeads by specific elution
MEASUREMENT_KIND: number of identified peptides, JNK1
No unit in the answer, only the number.

These recorded examples may help you get a feel for the data.
Cn1c(=O)c(-c2c(Cl)cccc2Cl)cc2cnc(Nc3ccc(CN)cc3)cc21 ... 17
Oc1ccc(-c2nc(-c3ccc(F)cc3)c(-c3ccncc3)[nH]2)cc1 ... 19
NCc1ccc(Nc2ncc(F)c(Nc3ccccc3)n2)cc1 ... 48
CNC1CC2OC(C)(C1OC)n1c3ccccc3c3c4c(c5c6ccccc6n2c5c31)C(=O)NC4 (stereo not drawn) ... 16
CCCCCCCCCCCCOS(=O)(=O)[O-].[Na+] ... 47

What value of measured number of identified peptides, JNK1 is listed for CC(C)[C@H](CO)Nc1nc(Nc2ccc(C(=O)O)c(Cl)c2)c2ncn(C(C)C)c2n1 [Purvalanol B, reference compound] ? 10
